Tested on: Hs294T (human melanoma)
protocol_text: In vitro cytotoxicity test, SRB assay, 72 h incubation with compound
Format: cell-based
experimental_context: Hs 294T; Hs294T human melanoma, SRB, 72 h
pIC50: −log10 of the molar value.
Could you label it TRUE if measured pIC50 is 7 or higher, and FALSE otherwise?

compound	answer_label
CC[C@@H](C(=O)[C@@H](C)[C@@H](O)[C@H](C)[C@@H]1O[C@@H]([C@@H](CC)C(=O)[O-])CC[C@@H]1C)[C@H]1O[C@]2(C=C[C@@H](NC(=O)NCCCCl)[C@]3(CC[C@@](C)([C@H]4CC[C@](O)(CC)[C@H](C)O4)O3)O2)[C@H](C)C[C@@H]1C.[Na+]	TRUE

Now let's try a different one.
INPUT: Check this compound for pIC50 at or above 7: CCOC(=O)N[C@@H]1C=C[C@]2(O[C@H]([C@@H](CC)C(=O)[C@@H](C)[C@@H](O)[C@H](C)[C@@H]3O[C@@H]([C@@H](CC)C(=O)O)CC[C@@H]3C)[C@@H](C)C[C@H]2C)O[C@@]12CC[C@@](C)([C@H]1CC[C@](O)(CC)[C@H](C)O1)O2
OUTPUT: TRUE

Every entry's value here was drawn from patent US12741974B2.
